assay: Toxicity liver stage against HepG2, at 10uM; format: cell-based; design: test concentration 10 uM, cell line HepG2-A16-CD81EGFP; details: human, HepG2-A16-CD81EGFP cells; read-out: INHIBITION
Property: cytotoxicity at 10 µM; scope: individual molecules
observable: cytotoxicity at 10 µM (%)

molecule: CN(CC(=O)NC(c1ccc(F)cc1)C(F)(F)F)S(C)(=O)=O (stereo unspecified)
observable: cytotoxicity at 10 µM
numericResult: -11.9
--
molecule: Cc1[nH]nc(CCC(=O)NCC2CCCN(C3CCCC3)C2)c1C (stereo unspecified)
observable: cytotoxicity at 10 µM
numericResult: -7.7
--
molecule: COc1cccc(OCC2CCCN(Cc3ccncc3)C2)c1 (stereo unspecified)
observable: cytotoxicity at 10 µM
numericResult: -7.66
--
molecule: CCn1cc(NC(=O)C2CCN(CCOC(C)C)CC2)cn1
observable: cytotoxicity at 10 µM
numericResult: -5.4
--
molecule: Cc1cc(C(=O)N2CCC3(CC2)C(=O)NCCN3CC(C)C)c(C)o1
observable: cytotoxicity at 10 µM
numericResult: 9.61
--
molecule: O=C(Cn1cc(C(=O)O)ccc1=O)Nc1ccc(F)cc1Cl
observable: cytotoxicity at 10 µM
numericResult: 0.381

----------
experiment: Toxicity liver stage against HepG2, at 10uM; type: cell-based; set-up: test concentration 10 uM, cell line HepG2-A16-CD81EGFP; conditions: human, HepG2-A16-CD81EGFP cells; read-out: INHIBITION

compound: COc1cc(-c2nc3c([nH]2)CCCNC3=O)ccc1O
unitDescriptor: %
cytotoxicity at 10 µM: 16.9

compound: Cn1cc(C#N)cc1C(=O)N1CCC2(CCCN(CC3CCC3)C2=O)C1 (centres undefined)
unitDescriptor: %
cytotoxicity at 10 µM: -4.3

compound: CCOCc1ccccc1NC(=O)NC1CCN(c2ncccn2)CC1
unitDescriptor: %
cytotoxicity at 10 µM: -4.78

compound: O=S(=O)(c1cccnc1)N1C[C@H]2CC[C@@H](C1)N(Cc1ccccc1)C2
unitDescriptor: %
cytotoxicity at 10 µM: -5.79

compound: COCCS(=O)(=O)NC(C)c1cccc(-n2cccn2)c1 (centres undefined)
unitDescriptor: %
cytotoxicity at 10 µM: 3.36

compound: Cc1cnn(CC(C)NCc2nc(-c3ccsc3)oc2C)c1 (centres undefined)
unitDescriptor: %
cytotoxicity at 10 µM: -2.6

compound: NCCO[C@H]1C[C@@H](O)C12CCN(C1Cc3ccccc3C1)CC2
unitDescriptor: %
cytotoxicity at 10 µM: 20.7

compound: Cc1ccc([C@@H]2CN(C(=O)c3cc(C)n[nH]3)C[C@H]2NC(=O)C2CC2)cc1
unitDescriptor: %
cytotoxicity at 10 µM: -7.77

compound: COc1ccc(-c2noc(C(CC(C)C)N3CCCCC3=O)n2)cn1 (centres undefined)
unitDescriptor: %
cytotoxicity at 10 µM: -54.2

compound: CCSCCNc1nc(-c2ccccn2)nc2c1c(C)nn2C
unitDescriptor: %
cytotoxicity at 10 µM: 6.35

compound: Cc1ccc(F)c(NCc2ccc(C(=O)N(C)C)[nH]2)c1
unitDescriptor: %
cytotoxicity at 10 µM: 4.96

compound: Cc1nc(CN2C(=O)CCC23CCN(c2ncccc2C)CC3)cs1
unitDescriptor: %
cytotoxicity at 10 µM: -2.07

compound: CNC(=O)c1cc2c(nc1NCC(C)C)CCN(c1ccncn1)CC2
unitDescriptor: %
cytotoxicity at 10 µM: 7.95

compound: CCN1CC(C(=O)NCc2cccc(SC)c2)CC1=O (centres undefined)
unitDescriptor: %
cytotoxicity at 10 µM: 4.68

compound: CC(C)C(Sc1nnc(C2CC2)n1C1CC1)C(=O)NCc1cccnc1 (centres undefined)
unitDescriptor: %
cytotoxicity at 10 µM: -11.2

compound: CCc1cc(NC(C)(C)C)nc(N2CCOCC2)n1
unitDescriptor: %
cytotoxicity at 10 µM: 0.393

compound: Cn1cc(CCCNC(=O)NC2CCN(CC(F)(F)F)C2=O)cn1 (centres undefined)
unitDescriptor: %
cytotoxicity at 10 µM: 6.51

compound: CS(=O)(=O)NCCN1CCOC2(CCc3ccccc32)C1 (centres undefined)
unitDescriptor: %
cytotoxicity at 10 µM: -9.63

compound: O=C(c1cc2ccccc2[nH]c1=O)N1CCC2(CCCNC2)C1 (centres undefined)
unitDescriptor: %
cytotoxicity at 10 µM: -4.66

compound: Cc1cc(O)n2nc(C3CCN(C(=O)c4ccccn4)CC3)cc2n1
unitDescriptor: %
cytotoxicity at 10 µM: -3.36

compound: Fc1cccc(N2CCCC3(CN(Cc4ccncc4)CCO3)C2)c1 (centres undefined)
unitDescriptor: %
cytotoxicity at 10 µM: 8.98

compound: COc1ccc(-c2n[nH]cc2CN(C)CCC2CCOCC2)cc1F
unitDescriptor: %
cytotoxicity at 10 µM: -6.57

compound: COc1ccc(-n2cc(CNC(=O)c3cscn3)nn2)cc1
unitDescriptor: %
cytotoxicity at 10 µM: -2.33

compound: COCC(=O)NCc1cc2n(n1)CCCN(CCCC1CCCC1)C2
unitDescriptor: %
cytotoxicity at 10 µM: -5.01

Just for reference, ChEMBL document CHEMBL4513216 is where these values come from.
